Values from PubChem BioAssay (NCI)

Test system: UACC-62 melanoma
Assay Name: NCI tumour cell line growth inhibition, 48 h
Measured Quantity: TGI

Examples with their reported TGI follow.
• CCOC(=O)C1=C(C)C2C3C(=O)NC(=O)C3C1(C)C1C(=O)NC(=O)C21 (stereo not drawn) = > 100 µM
• CSC1=N/C(=C\c2ccc(Cl)cc2)C(=O)N1CN1CCOCC1 = > 100 µM

Request: Data request, read-out TGI, for C#CCOC(=O)C(N)CS (stereo not drawn)
Result: > 100 µM

###

Test system: SW-620 colon
Assay Name: NCI tumour cell line growth inhibition, 48 h
Give measured TGI for each item. Keep answers brief.

Consider the worked cases shown below.
• COc1ccc(-c2cc(=O)c3c(O)c(OC)c(O)cc3o2)cc1O = > 100 µM
• CC1=C/C(=N\N(C)C)C(C(O)(C(F)(F)F)C(F)(F)F)C(C)(C)C1 (configuration not stated) = > 100 µM
• N#Cc1c(C(N)=O)ncn1Cc1ccccc1 = > 100 µM
• C=C1C(C2(C)C=CC(=O)OC3(C)COC(=O)CC32)C(OC=O)C(OC(=O)C(O)C(C)CC)C2(C)C(c3ccoc3)CC(OC(C)=O)C12O (configuration not stated) = > 100 µM
• C=C1C(=O)O[C@H]2[C@H]1CC/C(Cn1cc(Cn3ccc4cc(Cl)ccc43)nn1)=C\CC[C@@]1(C)O[C@@H]21 = 2.78 µM
• C=CCN1C(=O)N/C(=C\c2ccc(Cl)cc2)C1=O = > 100 µM

Now let's try a different one.
Request: Please give the measured TGI for this molecule: `O=C(CSc1nnc(-c2ccc(N=Cc3ccc(Cl)cc3)cc2)o1)Nc1ccccc1`
Result: > 100 µM

###

For each entry below, report its TGI value.
System: SN12C renal
Assay Name: NCI tumour cell line growth inhibition, 48 h

• CN1CCC23c4ccccc4NC1C21CCN(C)C3Nc2ccccc21 = > 375 µM
• CC(=O)NNc1nc(C)c(C(/C=C/c2ccccc2O)=N/NC(=O)c2ccncc2)s1 = > 100 µM
• O=C(Nc1ccc(N=Nc2ccccc2)cc1)Sc1ccccc1C(=O)O = > 100 µM

Consider the record given below.
Request: For SN12C renal, provide TGI of `COc1cc(/C=C/C(=O)CC(=O)/C=C/c2ccc(OC(=O)CCNC34CC5CC(CC(C5)C3)C4)c(OC)c2)ccc1OC(=O)CCNC12CC3CC(CC(C3)C1)C2` please.
Result: 17.8 µM

###

Test system: UACC-257 melanoma
Assay Name: NCI tumour cell line growth inhibition, 48 h
Measured Quantity: GI50

* O=c1[nH]cnc2c1nnn2[C@@H]1O[C@H](CO)[C@@H](O)[C@H]1O | 28.6 µM

# map each compound to its GI50
1. CCCCCCCCO/N=C\c1c2c(O)c3c(O)c(C)c4c(c3c1O)C(=O)C(C)(O/C=C\C(OC)C(C)C(OC(C)=O)C(C)C(O)C(C)C(O)C(C)/C=C\C=C(\C)C(=O)N2)O4 (stereo unspecified)
2. O=C(CSc1nc2sc3c(c2c(=O)n1-c1ccccc1)CCCCC3)N/N=C/c1ccc(F)cc1

Result:
1. 1.34 µM
2. 7.54 µM

###

Tested on: HOP-62 NSCLC
Assay Name: NCI tumour cell line growth inhibition, 48 h
Provide the reported TGI of each item.

Reference set, count: 5
- Cc1nc(Nc2ccccc2)sc1C(=O)NNC(N)=O: > 100 µM
- O=C1NC(=O)[C@H]2C3C=CC([C@@H]12)[C@@H]1C(=O)NC(=O)[C@H]31: > 100 µM
- COC(=O)C1=C(C(=O)OC)C(C(=O)c2ccccc2)N2N=C(c3ccc(Cl)cc3)C=CC12 (stereo unspecified): > 100 µM
- Cc1c(Cl)c(=O)oc2cc(OCC(=O)c3ccccc3)ccc12: 67.8 µM
- O=C1OC(c2ccccc2)(c2ccccc2)CC1CN1CCOCC1 (stereo unspecified): > 100 µM

Consider the additional molecule presented here.
Request: Entry `C[C@@H](Oc1cc(-c2cnn(C3CC4(CCNCC4)C3)c2)cnc1N)c1c(F)ccc(Cl)c1Cl` : reported TGI = ?
Result: 5.9 µM

###

Please respond with reported GI50 for every item in the list.
System: MDA-MB-231 breast
Assay Name: NCI tumour cell line growth inhibition, 48 h

Would you please look over these solved cases?
- CC(=O)C1=C(O)C2(O)C(=O)c3c(c(C)c4ccc(C)c(O)c4c3O)CC2C(N)C1=O (centres undefined): 0.73 µM
- C[C@@H](Oc1cc(-c2cnn(C3CC4(CCNCC4)C3)c2)cnc1N)c1c(F)ccc(Cl)c1Cl: 1.26 µM
- CCOC(=O)c1ccc(C(O)CC(=O)OC(C)(C)C)[nH]1 (centres undefined): 13 µM
- COc1cc(N)ccc1Nc1c2ccccc2nc2ccccc12: 13.1 µM
- CC(=O)O[C@H]1C(=O)[C@@]2(C)[C@H]([C@H](OC(=O)c3ccccc3)[C@]3(O)C[C@H](OC(=O)[C@H](OC(=O)CCC(=O)OC4CCC(S/N=C(N)/N=C(\N)N(C)C)CC4)[C@@H](NC(=O)c4ccccc4)c4ccccc4)C(C)=C1C3(C)C)[C@]1(OC(C)=O)CO[C@@H]1C[C@@H]2O (some centres undefined): 0.0249 µM

Would you mind giving GI50 for every molecule in the list below?
1. O=C(/C=C/C12c3ccccc3C(c3ccccc31)C1C(=O)NC(=O)C12)c1ccco1 (centres undefined)
2. Cc1cc(Nc2nc(N3CCOCC3)nc3ccccc23)n[nH]1
3. COc1ccc2c(c1)C(=O)c1c-2c(N2CCN(C(=O)CN(C)C)CC2)nc2ccccc12
4. O=C(Nc1cccc(-c2nc3ccccc3[nH]2)c1)c1cccc(NC(=O)c2ccco2)c1

Result:
3.85 µM
15 µM
13.3 µM
1.98 µM

###

System: OVCAR-5 ovarian
Assay Name: NCI tumour cell line growth inhibition, 48 h
*1 amine or outer side, *2 acyl side, *3 side chain or, on linkers, in order; H or OH if unused. Where a SMILES comes first, the peptide text is derived from it. CO = O=C([*:1])[*:2]
What TGI was measured for each of the following?

Take a look at these entries with their results.
* CC1(C)C[C@H]2C3=CC[C@@H]4[C@@]5(C)CC[C@H](O)C(C)(C)[C@@H]5CC[C@@]4(C)[C@]3(C)C[C@@H](O)[C@@]23C[C@@H]1OC3=O | > 100 µM
* Cc1c(Cl)c(=O)oc2cc(OCC(=O)c3ccccc3)ccc12 | > 100 µM
* CCCCC1Cc2cc(OC)ccc2-c2nc3cc(OC)ccc3n21 (stereo not given) (tested in a mixture with another compound) | 31.4 µM

Please go through the list and note TGI for each compound.
1. CC(=O)/C(=C/N1C(=O)CC(=O)NC1=S)C(=O)Nc1ccccc1C
2. C=C1C(=O)O[C@H]2[C@H]1CC/C(COC(=O)N[C@@H](Cc1c[nH]c3ccccc13)C(=O)OC)=C\CC[C@@]1(C)O[C@@H]21
3. C/C=C/CP(=O)(c1ccccc1)c1ccccc1
4. CO/C=C/c1cc2c(cc1C(OC)OC)OCO2
5. CC(C)C(NC(=O)C(CCCN=C(N)N)NC(=O)NC(Cc1ccccc1)C(=O)O)C(=O)NC(C=O)CCCN=C(N)N (stereo not drawn) ({Phe-CO}-Arg-Val-Arg-aldehyde; configuration not given here)
6. N=c1oc2cc(O)c(O)cc2cc1C(N)=O

Result:
["> 100 µM", "4.92 µM", "> 100 µM", "> 100 µM", "> 5 µM", "> 100 µM"]

Please give TGI, item by item, for the list that follows.
1. O=C1CC(c2ccccc2)NCN1 (stereo not given)
2. CCn1cc(C(=O)O)c(=O)c2cc(F)c(N3CCN(Cn4c(O)c(N=NC(=O)c5ccncc5)c5cc(Cl)ccc54)CC3)cc21
3. CC1CC(C)C(=O)C(C(=O)CC2CC(=O)NC2=O)C1 (stereo not given)
4. CC1(C)CC2=NOS3=C2C(=NO3)C1c1ccccn1 (stereo not given)
5. c1ccc2c(c1)n1c(N3CCOCC3)[n+]3ccccc3c1c1c3cccc[n+]3c(N3CCOCC3)n21
6. CCN(CC)/C(=C\Cl)Nc1ccccn1

Result:
["> 100 µM", "> 100 µM", "> 100 µM", "> 100 µM", "> 100 µM", "> 100 µM"]

// each listed compound needs a value for TGI
1. Nc1nc(F)nc2c1ncn2C1OC(COP(=O)(O)O)C(O)C1O (stereo not given)
2. C/C(=C\c1csc(C)n1)[C@@H]1C[C@@H]2O[C@]2(C)CCC[C@H](C)[C@H](O)[C@@H](C)C(=O)C(C)(C)[C@@H](O)CC(=O)O1 (tested in a mixture with another compound)
3. CCOC(=O)c1c(-c2ccc(Cl)cc2)c(C#N)c(=S)n(C2OC(CO)C(O)C(O)C2O)c1-c1ccccc1 (stereo not given)
4. COC(=O)c1cccc(C)c1C1CN=NC12Cc1c(ccc(C)c1C)C2=O (stereo not given)

Result:
["617 µM", "> 1 µM", "40.8 µM", "> 100 µM"]

Request: Report TGI for `CCC/C(Cl)=N\OC(=O)Nc1ccc(Br)cc1` please.
Result: 27.8 µM
